# assay.explanation: endothelial E-selectin expression blockers – imaging, HUVEC, immunofluorescence, MLSMR starter and 10KST1 sets, primary screen (AID 487);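 also: signal is fraction of cell area covered by stained E-selectin grains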
# test.settings: HUVEC TNFalpha-induced E-selectin immunofluorescence imaging, at 2 µM; hits give high values
Catalogue of inhibition values
readout.type: inhibition (%)

compound=CCCC(=O)Nc1cccc(NC(=O)CN2CCN(c3ccccc3OC)CC2)c1 readout_type=inhibition unit_descriptor=% value_reported=-61.4
compound=COc1cc(NC(=O)Nc2cccc(Cl)c2)c(OC)cc1NC(=O)CN1CCCCC1 readout_type=inhibition unit_descriptor=% value_reported=-45.1
compound="COc1cc2c(cc1OC)C(C)N(C(=O)c1cc3n(n1)C(C(F)(F)F)CC(c1ccco1)N3)CC2 (stereo unspecified)" readout_type=inhibition unit_descriptor=% value_reported=-22
compound="O=C1CC(N2CCN(c3ccc(Cl)c(Cl)c3)CC2)C(=O)N1 (stereo unspecified)" readout_type=inhibition unit_descriptor=% value_reported=25.6
compound="CC1(C)CC(=O)C2=C(C1)NC(=O)CC2c1ccc(N(CCC#N)CCC#N)cc1 (stereo unspecified)" readout_type=inhibition unit_descriptor=% value_reported=21.1
compound=Cn1c(SCC(=O)Nc2ccc3c(c2)oc2ccccc23)nnc1-c1ccccc1 readout_type=inhibition unit_descriptor=% value_reported=-52.8
compound=O=c1oc2ccccc2c2nccnc12 readout_type=inhibition unit_descriptor=% value_reported=-5.2
compound=Cc1cccc(Cc2nnc(NC(=O)c3cccc(S(=O)(=O)N4CCOCC4)c3)s2)c1 readout_type=inhibition unit_descriptor=% value_reported=0.9
compound=CC1(C)CC(=O)C(CC2=C(O)CC(C)(C)CC2=O)=C(O)C1 readout_type=inhibition unit_descriptor=% value_reported=-24.2
compound="Cc1nc2ccc(S(=O)(=O)NC(C(=O)N3CCCC3)C(C)C)cc2s1 (stereo unspecified)" readout_type=inhibition unit_descriptor=% value_reported=-33
compound=CCCN1C=CC(=C2C(=O)c3ccccc3C2=O)C=C1 readout_type=inhibition unit_descriptor=% value_reported=-7.6
compound=N#Cc1nc(-c2ccco2)oc1NCCc1ccccc1 readout_type=inhibition unit_descriptor=% value_reported=-3
compound=COC(=O)CSc1nnc(-c2cccs2)n1-c1ccc(Cl)cc1 readout_type=inhibition unit_descriptor=% value_reported=-50.2
compound=CCOCCCn1c(=NC(C)=O)c(C(=O)OCC)cc2c(=O)n3ccccc3nc21 readout_type=inhibition unit_descriptor=% value_reported=-119
compound=Cc1ccnc(SCCn2c(N3CCCCC3)nc3c2c(=O)n(C)c(=O)n3C)n1 readout_type=inhibition unit_descriptor=% value_reported=-49.1
compound=CC(=O)CCc1c(C)[nH]c2ccccc2c1=O readout_type=inhibition unit_descriptor=% value_reported=-3.8
compound=CCN1C(=O)c2cccc3c(NC(=O)c4ccc5c(c4)OCCO5)ccc1c23 readout_type=inhibition unit_descriptor=% value_reported=18
compound=COC(=O)CSc1ncccc1-c1nc2ccccc2[nH]1 readout_type=inhibition unit_descriptor=% value_reported=-48.5
compound=N#Cc1cc2c(nc1SCC(=O)Nc1sc3c(c1C#N)CCC3)CCCCC2 readout_type=inhibition unit_descriptor=% value_reported=32.4
compound=CCN1CCN(c2ncc(C(=O)N3CCN(c4ccccc4OC)CC3)c3ccccc23)CC1 readout_type=inhibition unit_descriptor=% value_reported=13.2
compound="O=C(Nc1ccccc1C(=O)N1CCOCC1)C1CCC(=O)N1C1CCCC1 (stereo unspecified)" readout_type=inhibition unit_descriptor=% value_reported=-48.2
